target.entity: huCD4_1–32-YFP K32A (Homo sapiens, UniProt P01730, K32A)
test.description: CADA inhibition of huCD4_1–32-YFP secretion
Type: cell-based
test.conditions: read-out: Secreted YFP IC50 (μM) Mean, HEK293T, CADA 48h
readout.kind: IC50
Record the result as number plus unit.

Query block: Record request: IC50 value, item C=C1CN(S(=O)(=O)c2ccc(C)cc2)CCCN(Cc2ccccc2)CCCN(S(=O)(=O)c2ccc(C)cc2)C1 [CADA, Cyclotriazadisulfonamide]
Result block: 17.6 µM

###

target.entity: FL huCD4 Q24A (Homo sapiens, UniProt P01730, Q24A)
test.description: CADA down-modulation of cellular huCD4
Type: cell-based
test.conditions: read-out: Cellular huCD4 IC50 (μM) Mean, HEK293T, CADA 48h
readout.kind: IC50 (µM)
I only need the number, in µM, no unit after it.

Query block: Given the entry C=C1CN(S(=O)(=O)c2ccc(C)cc2)CCCN(Cc2ccccc2)CCCN(S(=O)(=O)c2ccc(C)cc2)C1 [CADA, Cyclotriazadisulfonamide] , report its measured IC50.
Result block: 1.22
